These entries and their values trace back to PubChem BioAssay (NCI).

# Tested on: MALME-3M melanoma
# experimentNotes: NCI-60 one-dose screen, 48 h
# reportedConditions: 10 µM unless noted
About 83,000 compounds went through this panel and 20% of them were active in at least one assay; those are over-represented in the sample as a whole. The source made the active and inactive calls. The calls were made as follows: active = growth percent below 10; inactive = the rest.
The reply should name one outcome from active, inactive

Please indicate how the test categorized COc1ccc(Sc2[nH]c(C=O)c3ccccc23)cc1 .
inactive

Please indicate how the test categorized COc1cc(CN2CCO[C@H](COc3cccc(F)c3)C2)ccc1Cl .
inactive

Please indicate how the test categorized O=c1cc(N2CCOCC2)oc2c(-c3ccc4c(c3)OCCO4)csc12 .
active

Please indicate how the test categorized Cc1nc2n[nH]c(N)c2nc1C .
inactive

Please indicate how the test categorized Cc1[nH]n(C(=O)c2ccncc2)c(=O)c1N=Nc1ccc(O)c(C(=O)O)c1 .
inactive

Please indicate how the test categorized COc1cc2nccc(Oc3ccc(NC(=O)C4(C(=O)Nc5ccc(F)cc5)CC4)cc3)c2cc1O .
inactive

Please indicate how the test categorized C/C=C(\C)C(C(=O)NC1CCCCC1)N(C(=O)C1CCc2cc(F)ccc2O1)c1ccc([N+](=O)[O-])cc1 (stereo unspecified) .
inactive

Please indicate how the test categorized N#CC1=C(N)Oc2nc[nH]c(=O)c2C1c1cccs1 (stereo unspecified) .
inactive

Please indicate how the test categorized COc1ccc(/C(=C\c2cc(OC)c(OC)c(OC)c2)C(=O)N2CCCNCC2)cc1 .
inactive

Please indicate how the test categorized Nc1cc2nc3ccccc3oc-2cc1=O .
active

Please indicate how the test categorized O=C(OCc1ccc2c(Br)cc(Br)c(O)c2n1)c1cc2ccccc2[nH]1 .
active
